EXPERIMENTAL TARGET: human cloned dopamine D4.2 receptors (Homo sapiens, UniProt P21917, DEL265-296)
Construct: expressed in transfected cells; host or cells: CHO cells
Sequence (P21917 with tags, fused parts or gaps DEL265-296): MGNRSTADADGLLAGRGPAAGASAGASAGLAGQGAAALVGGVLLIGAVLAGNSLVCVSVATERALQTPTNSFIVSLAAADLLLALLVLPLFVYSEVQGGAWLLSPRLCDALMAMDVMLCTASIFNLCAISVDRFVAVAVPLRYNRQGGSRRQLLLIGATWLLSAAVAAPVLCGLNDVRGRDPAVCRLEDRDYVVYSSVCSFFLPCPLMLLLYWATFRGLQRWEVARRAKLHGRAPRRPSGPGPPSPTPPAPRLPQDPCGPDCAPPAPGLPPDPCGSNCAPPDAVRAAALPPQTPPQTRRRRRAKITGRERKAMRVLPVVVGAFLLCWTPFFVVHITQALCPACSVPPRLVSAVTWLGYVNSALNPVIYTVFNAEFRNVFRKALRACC
PROCEDURE SUMMARY: Inhibition of the binding of [3H]YM-09151-2 to human dopamine D4 receptors
APPLIED CONDITIONS: 50 nM compound; [3H]YM-09151-2 0.06 nM; membranes of CHO-cells
MEASURE: inhibition at 0.05 µM (%)
Numbers only; they are read as %.

The examples below pair each entry with its known result.
Cc1ccc(NC(=O)c2cccs2)cc1CCN1CCC(c2c[nH]c3ccc(F)cc23)CC1: 89
Cc1ccc(NC(=O)c2cccs2)cc1CCN1CCC(c2c[nH]c3cc(Cl)ccc23)CC1: 92
Cc1ccc(NC(=O)c2ccncc2)cc1CCN1CCC(c2c[nH]c3c(Cl)cccc23)CC1: 73
Cc1ccc(NC(=O)C2CC2)cc1CCN1CCC(c2c[nH]c3ccc(F)cc23)CC1: 89
CCCCCC(=O)Nc1ccc(C)c(CCN2CCC(c3c[nH]c4c(Cl)cccc34)CC2)c1: 91
Cc1ccc(NC(=O)c2cccnc2)cc1CCN1CCC(c2c[nH]c3ccc(F)cc23)CC1: 91

*Q* // Input: Cc1ccc(NC(=O)c2ccc(Cl)cc2)cc1CCN1CCC(c2c[nH]c3c(Cl)cccc23)CC1 . Output its inhibition at 0.05 µM only.
*A* 79

*Q* Consider the compound Cc1ccc(NC(=O)C2CCOCC2)cc1CCN1CCC(c2c[nH]c3ccc(F)cc23)CC1 . State its measured inhibition at 0.05 µM.
*A* 96

*Q* Read the entry Cc1ccc(NC(=O)Cc2ccccc2)cc1CCN1CCC(c2c[nH]c3c(Cl)cccc23)CC1 and write its reported inhibition at 0.05 µM.
*A* 89

*Q* // fetch inhibition at 0.05 µM given entry Cc1ccc(C(=O)Nc2ccc(C)c(CCN3CCC(c4c[nH]c5c(Cl)cccc45)CC3)c2)cc1
*A* 90

*Q* Please give the documented inhibition at 0.05 µM of Cc1ccc(NC(=O)CCC2CCCCC2)cc1CCN1CCC(c2c[nH]c3ccc(F)cc23)CC1
*A* 97

*Q* Give recorded inhibition at 0.05 µM. COc1cccc(C(=O)Nc2ccc(C)c(CCN3CCC(c4c[nH]c5cc(Cl)ccc45)CC3)c2)c1
*A* 88
